Reference for the values: patent US6762181B1

# System: E. coli NIHJ
# test summary: Antibacterial activity (MIC), Japan Society of Chemotherapy standard method
# Format: cell-based
# experimental parameters: Escherichia coli, read-out: MIC
Readings of MIC for the listed molecules

Recorded results for 5 molecules are shown here.
{"columns": ["molecule", "system tested", "MIC"],
 "data": [
  ["COc1c(N2CC[C@@H](C(N)c3ccccc3)C2)c(F)cc2c(=O)c(C(=O)O)cn([C@@H]3C[C@@H]3F)c12 (stereo partly drawn) [Example 3]", "E. coli NIHJ", "≤ 3 ng/mL"],
  ["Nc1c(F)c(N2CC[C@@H](C(N)c3ccccc3)C2)c(F)c2c1c(=O)c(C(=O)O)cn2[C@@H]1C[C@@H]1F (single isomer, unassigned) [Example 1]", "E. coli NIHJ", "≤ 3 ng/mL"],
  ["O=C(O)c1cn(C2CC2)c2cc(N3CCNCC3)c(F)cc2c1=O [CPFX, ciprofloxacin, reference compound]", "E. coli NIHJ", "≤ 3 ng/mL"],
  ["Cc1c(N2CC[C@@H](C(N)c3cccnc3)C2)c(F)c(N)c2c(=O)c(C(=O)O)cn([C@@H]3C[C@@H]3F)c12 (stereo partly drawn) [Example 20]", "E. coli NIHJ", "6 ng/mL"],
  ["Nc1c(F)c(N2CC[C@@H](C(N)c3cccnc3)C2)c(F)c2c1c(=O)c(C(=O)O)cn2[C@@H]1C[C@@H]1F (stereo partly drawn) [Example 19]", "E. coli NIHJ", "≤ 3 ng/mL"]
]}

## Input Give the measured MIC of COc1c(N2CC[C@@H](C(N)c3ccccc3)C2)ccc2c(=O)c(C(=O)O)cn([C@@H]3C[C@@H]3F)c12 (stereo partly drawn) [Example 6] .
## Output 6 ng/mL

====

# Tested on: X. maltophilia IID 1275
# test summary: Antibacterial activity (MIC), Japan Society of Chemotherapy standard method
# Type: cell-based
# experimental parameters: X. maltophilia IID 1275
measured parameter: MIC (µg/mL)
# number only, unit µg/mL dropped from output

{"columns": ["compound", "measured parameter", "measurement"],
 "data": [
  ["Nc1c(F)c(N2CC[C@@H](C(N)c3ccccc3)C2)c(F)c2c1c(=O)c(C(=O)O)cn2[C@@H]1C[C@@H]1F (single isomer, unassigned) [Example 1]", "MIC", 0.1],
  ["Nc1c(F)c(N2CC[C@@H](C(N)c3ccco3)C2)c(F)c2c1c(=O)c(C(=O)O)cn2[C@@H]1C[C@@H]1F (some centres unmarked)", "MIC", 0.05],
  ["Nc1c(F)c(N2CC[C@@H](C(N)c3ccccc3)C2)c(F)c2c1c(=O)c(C(=O)O)cn2[C@@H]1C[C@@H]1F (single isomer, unassigned) [Example 2]", "MIC", 0.025]
]}

## Input Query: MIC; subject: Cc1c(N2CC[C@@H](C(N)c3ccccn3)C2)c(F)c(N)c2c(=O)c(C(=O)O)cn([C@@H]3C[C@@H]3F)c12 (some centres unmarked)
## Output 0.05

## Input Quick check: MIC of COc1ccccc1C(N)[C@@H]1CCN(c2c(F)c(N)c3c(=O)c(C(=O)O)cn([C@@H]4C[C@@H]4F)c3c2F)C1 (some centres unmarked) ?
## Output 0.2

## Input I would be grateful if you could share the reported MIC for C[C@H]1COc2c(N3CC[C@@H](C(N)c4ccccc4)C3)c(F)cc3c(=O)c(C(=O)O)cn1c23 (some centres unmarked) .
## Output 0.05

## Input # get_value(readout='MIC', item= Nc1c(F)c(N2CC[C@@H](C(N)c3ccc(F)cc3F)C2)c(F)c2c1c(=O)c(C(=O)O)cn2[C@@H]1C[C@@H]1F (some centres unmarked) )
## Output 0.05

## Input Fill in: MIC of Nc1c(F)c(N2CC[C@@H](C(N)c3ccccn3)C2)c(F)c2c1c(=O)c(C(=O)O)cn2[C@@H]1C[C@@H]1F (some centres unmarked) is ___
## Output 0.1

====

# Tested on: E. coli NIHJ
# test summary: Antibacterial activity (MIC), Japan Society of Chemotherapy standard method
# Type: cell-based
# experimental parameters: Escherichia coli, read-out: MIC
measured parameter: MIC (ng/mL)
Write the number in ng/mL without appending the unit.

{"columns": ["molecule", "system tested", "unit text", "MIC"],
 "data": [
  ["C[C@H]1COc2c(N3CCN(C)CC3)c(F)cc3c(=O)c(C(=O)O)cn1c23 [LVFX, levofloxacin, reference compound]", "E. coli NIHJ", "ng/mL", 13]
]}

Proceeding to the next molecule to report its MIC.
## Input Name the recorded MIC for Cc1c(N2CC[C@@H]([C@H](C)N)C2)c(F)c(N)c2c(=O)c(C(=O)O)cn([C@@H]3C[C@@H]3F)c12 [Control drug 1, reference compound] .
## Output 6

====

# System: Ps. aeruginosa 32121
# test summary: Antibacterial activity (MIC), Japan Society of Chemotherapy standard method
# Format: cell-based
# experimental parameters: Pseudomonas aeruginosa, 32121, Ps. aeruginosa 32121; read-out: MIC
# Experimental: Antibacterial activities of the compounds of the invention were measured in accordance with the standard method specified by the Japan Society of Chemotherapy, with the results shown in the following table as MIC values (μg/ml). […]
measured parameter: MIC (µg/mL)
Report only the number, with the unit µg/mL understood.

{"columns": ["compound", "system tested", "unit text", "MIC"],
 "data": [
  ["Cc1c(N2CC[C@@H](C(N)c3cccnc3)C2)c(F)c(N)c2c(=O)c(C(=O)O)cn([C@@H]3C[C@@H]3F)c12 (stereo partly drawn)", "Ps. aeruginosa 32121", "µg/mL", 0.05],
  ["Cc1c(N2CC[C@@H]([C@H](C)N)C2)c(F)c(N)c2c(=O)c(C(=O)O)cn([C@@H]3C[C@@H]3F)c12 [Control drug 1, reference compound]", "Ps. aeruginosa 32121", "µg/mL", 0.05]
]}

Lab note: next compound to report on.
## Input Which measured MIC value corresponds to COc1c(N2CC[C@@H](C(N)c3ccccc3)C2)ccc2c(=O)c(C(=O)O)cn([C@@H]3C[C@@H]3F)c12 (stereo partly drawn) ?
## Output 0.1

====

# Tested on: Str. pyrogenes G-36
# test summary: Antibacterial activity (MIC), Japan Society of Chemotherapy standard method
# Assay type: cell-based
# experimental parameters: read-out: MIC
measured parameter: MIC (mg/L)
Dear colleague, please return just the value in mg/L, with no unit written.

{"columns": ["molecule", "MIC / mg/L"],
 "data": [
  ["O=C(O)c1cn(C2CC2)c2cc(N3CCNCC3)c(F)cc2c1=O [CPFX, ciprofloxacin, reference compound]", 1.56]
]}

## Input May I ask what MIC has been recorded for C[C@H]1COc2c(N3CCN(C)CC3)c(F)cc3c(=O)c(C(=O)O)cn1c23 [LVFX, levofloxacin, reference compound] ?
## Output 0.2

====

# System: Str. pneumoniae J24
# test summary: Antibacterial activity (MIC), Japan Society of Chemotherapy standard method
# Format: cell-based
# experimental parameters: Streptococcus pneumoniae, J24, Str. pneumoniae J24; read-out: MIC
# Protocol: Antibacterial activities of the compounds of the invention were measured in accordance with the standard method specified by the Japan Society of Chemotherapy, with the results shown in the following table as MIC values (μg/ml). […]
// values below are reported MIC
Give a bare numeral; the unit ng/mL is implied.

Known results for compounds:
{"columns": ["compound", "unit text", "MIC"],
 "data": [
  ["C[C@H]1COc2c(N3CCN(C)CC3)c(F)cc3c(=O)c(C(=O)O)cn1c23 [LVFX, levofloxacin, reference compound]", "ng/mL", 780],
  ["O=C(O)c1cn(C2CC2)c2cc(N3CCNCC3)c(F)cc2c1=O [CPFX, ciprofloxacin, reference compound]", "ng/mL", 100],
  ["Nc1c(F)c(N2CC[C@@H](C(N)c3ccco3)C2)c(F)c2c1c(=O)c(C(=O)O)cn2[C@@H]1C[C@@H]1F (stereo partly shown)", "ng/mL", 6]
]}

## Input Which MIC reading was recorded for the compound Nc1c(F)c(N2CC[C@@H](C(N)c3ccccc3)C2)c(F)c2c1c(=O)c(C(=O)O)cn2[C@@H]1C[C@@H]1F (single isomer, unassigned) ?
## Output 6

====

MIC overview
# System: Ps. aeruginosa 32121
# test summary: Antibacterial activity (MIC), Japan Society of Chemotherapy standard method
# Assay type: cell-based
# experimental parameters: Pseudomonas aeruginosa, 32121, Ps. aeruginosa 32121; read-out: MIC
# Experimental: Antibacterial activities of the compounds of the invention were measured in accordance with the standard method specified by the Japan Society of Chemotherapy, with the results shown in the following table as MIC values (μg/ml). […]
// return numeric value only (unit: µg/mL, not printed)

Please review the following examples before continuing.
{"columns": ["compound", "system tested", "unit text", "MIC"],
 "data": [
  ["Nc1c(F)c(N2CC[C@@H](C(N)c3cccnc3)C2)c(F)c2c1c(=O)c(C(=O)O)cn2[C@@H]1C[C@@H]1F (stereo partly drawn)", "Ps. aeruginosa 32121", "µg/mL", 0.05],
  ["O=C(O)c1cn(C2CC2)c2cc(N3CCNCC3)c(F)cc2c1=O [CPFX, ciprofloxacin, reference compound]", "Ps. aeruginosa 32121", "µg/mL", 0.025],
  ["C[C@H]1COc2c(N3CCN(C)CC3)c(F)cc3c(=O)c(C(=O)O)cn1c23 [LVFX, levofloxacin, reference compound]", "Ps. aeruginosa 32121", "µg/mL", 0.1]
]}

## Input Could you tell me which MIC is on file for Cc1c(N2CC[C@@H](C(N)c3ccccc3)C2)c(F)c(N)c2c(=O)c(C(=O)O)cn([C@@H]3C[C@@H]3F)c12 (stereo partly drawn) ?
## Output 0.025

## Input Fill in: MIC of COc1c(N2CC[C@@H](C(N)c3ccccc3)C2)c(F)cc2c(=O)c(C(=O)O)cn([C@@H]3C[C@@H]3F)c12 (stereo partly drawn) is ___
## Output 0.05

## Input Look up MIC: Nc1c(F)c(N2CC[C@@H](C(N)c3ccco3)C2)c(F)c2c1c(=O)c(C(=O)O)cn2[C@@H]1C[C@@H]1F (stereo partly drawn)
## Output 0.05
